The reported numbers originate from PubChem BioAssay (NCI).

Test: NCI Yeast Anticancer Drug Screen. Data for the rad50 strain (AID 155);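 further: 0% = growth of vehicle-only cultures of the same strain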
Settings: S. cerevisiae rad50 strain growth inhibition; at 50.0 µM; stronger effect = higher value
Procedure: Growth inhibition of yeast strains with defined genetic alterations is measured as a screen for potential anti-cancer activity. Selected strains with alterations in DNA damage repair or cell cycle control were exposed to compounds and growth inhibition was measured relative to vehicle treated controls. The strain used in this assay is rad50
This is part of a sample that, as a whole, favours compounds with a hit. Of some 79,000 tested, about 15% had one in any assay.
endpoint: growth inhibition (%)
Write down the numeric answer in % and omit the unit.

Challenge: # query: growth inhibition of entry Cc1c(N)nc(C(CC(N)=O)NCC(N)C(N)=O)nc1C(=O)NC(C(=O)NC(C)C(O)C(C)C(=O)NC(C(=O)NCCc1nc(-c2nc(C(=O)NCCCNCCCc3ccccn3)cs2)cs1)C(C)O)C(OC1OC(CO)C(O)C(O)C1OC1OC(CO)C(O)C(OC(N)=O)C1O)c1cnc[nH]1 (centres undefined)
Response given: 92.6

Challenge: # query: growth inhibition of entry CCCCCCCCCCCC(=O)Oc1c(Cl)c(Cl)c(C#N)c(Cl)c1Cl
Response given: 70.7

Challenge: # query: growth inhibition of entry COc1ccc2c(c1)CCCN2CCCCCCCCCN1CCCCC1
Response given: 62

Challenge: # query: growth inhibition of entry CS(=O)(=O)OC1C(O)C(n2cnc3c(N)ncnc32)C(O)C(OS(C)(=O)=O)C1OS(C)(=O)=O (centres undefined)
Response given: 0.05

Challenge: # query: growth inhibition of entry COc1ccccc1/C=C1\SC(=S)N(/C=C2\C(=O)Oc3ccccc3C2=O)C1=O
Response given: 30.9

Challenge: # query: growth inhibition of entry Nc1ncnc2nc(-c3ccc(C[P+](c4ccccc4)(c4ccccc4)c4ccccc4)cc3)[nH]c12
Response given: 72

Challenge: # query: growth inhibition of entry O=C1CC2(CCCC2)C(=O)N1c1ccc(N2C(=O)CC3(CCCC3)C2=O)cc1
Response given: -11.8

Challenge: # query: growth inhibition of entry O=C1C=C(c2ccccc2)O/C1=C/C(=O)c1ccc(Cl)cc1
Response given: 53.3

Challenge: # query: growth inhibition of entry C/C(=N\OS(=O)(=O)O)SC1OC(CO)C(O)C(O)C1O (centres undefined)
Response given: 3.1

----------
experiment: NCI Yeast Anticancer Drug Screen. Data for the mlh1 rad18 strain (AID 175); details: S. cerevisiae mlh1 rad18 strain growth inhibition; at 50.0 µM
The panel holds about 79,000 compounds, 15% with a hit somewhere; the sample as a whole holds those more often. Calls of active or inactive are those of the source. No stated cut-off is given here; in the data, active means growth inhibition above about 70%; inactive means the rest.
Would you mind answering with one of these outcomes? T = active, F = inactive

Challenge: Hi, do you know how O=C1C=C(O)c2cc(Br)ccc2C1=O.[Ag] came out in this test?
Response given: T

Challenge: Hi, do you know how O=c1ssc(=Nc2ccc(Cl)cc2)n1-c1ccc(Cl)cc1 came out in this test?
Response given: T

Challenge: Hi, do you know how CC(NC(=O)OCc1ccccc1)C(=O)NNc1ccccc1Cl (stereo unspecified) came out in this test?
Response given: T

Challenge: Hi, do you know how O=c1oc2ccccc2c(O)c1C1=N/C(=N/N=C/c2ccc(Cl)cc2)SC1 came out in this test?
Response given: F

Challenge: Hi, do you know how Oc1cc(O)c2c(c1)OC(c1ccc(O)c(O)c1)C(OC1(c3cc(O)c(O)c(O)c3)Oc3cc(O)cc(O)c3C(O)C1O)C2 (stereo unspecified) came out in this test?
Response given: F

Challenge: Hi, do you know how Cc1c[nH]c(=O)n(CC(=O)C2CCC3C4CCC5=CC(=O)CCC5(C)C4CCC23C)c1=O (stereo unspecified) came out in this test?
Response given: F

Challenge: Hi, do you know how CC(/C=C/c1ccc(Cl)cc1)=N\NC(N)=S came out in this test?
Response given: F

Challenge: Hi, do you know how CCCCCCCCNc1ccc(Cl)cc1 came out in this test?
Response given: T

Challenge: Hi, do you know how CCC(=O)NC1=C(Cl)C(=O)c2ccccc2C1=O came out in this test?
Response given: T

Challenge: Hi, do you know how O=S(=O)(c1ccc(NC(=S)NCc2ccncc2)cc1)N1CCCCC1 came out in this test?
Response given: F

Challenge: Hi, do you know how Nc1ccc(CSc2ccc(Cl)cc2)cc1Cl came out in this test?
Response given: F
